The values you see were collected from paper PMC10842001.

Target: PSD-95 PDZ3cα protein (residues R309-S422) (UniProt P78352 309-422)
Sequence (P78352 309-422): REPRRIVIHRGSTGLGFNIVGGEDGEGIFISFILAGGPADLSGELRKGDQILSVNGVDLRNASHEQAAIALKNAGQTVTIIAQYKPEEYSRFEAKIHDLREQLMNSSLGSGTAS
Assay: SPR
Bridges are numbered along the chain shown (N, C = ends). Where no end group is shown, it is not given here. [ ]: non-standard residue; d: D form. Trp(5-OH) = N[C@@H](Cc1c[nH]c2ccc(O)cc12)C(=O)O; Phe(4-NH2) = Nc1ccc(C[C@H](N)C(=O)O)cc1
measured.attribute: koff
State the result as a value with its unit after it.

Sample answers from the record:
RRRRRRGSFPP[Trp(5-OH)]VQQTRV [W7-OHW (peptide 13), SYNGAP peptide with 5-hydroxy-Trp in place of Trp7]
0.0106 s⁻¹
GSFPPWVQ [αC binder (peptide 8), fragment of the SYNGAP peptide made up of only αC helix interacting residues]
0.00592 s⁻¹
CGSFPPWVKKTEV (bridge 10-12; not fully specified (residue 10, bridges)) [Syn3* (peptide 4), active component peptide of Syn3 without the poly-arginine moiety]
0.0287 s⁻¹
RRRRRRGS[Phe(4-NH2)]PPWVQQTRV [F4-NH2F (peptide 12), SYNGAP peptide with ζ-Amino-Phe in place of Phe4]
0.0104 s⁻¹
RRRRRRGSFP[dP]WVQQTRV [D-Pro5 (peptide 16), SYNGAP peptide with d-Pro at the second proline]
0.0444 s⁻¹

In plain terms, RRRRRRGSFPPW[dV]QQTRV [D-Val8 (peptide 17), SYNGAP peptide with d-Val] has a documented koff of 0.0459 s⁻¹

In plain terms, RRRRRRGSF[dP]PWVQQTRV [D-Pro4 (peptide 15), SYNGAP peptide with d-Pro at the first proline] has a documented koff of 0.0116 s⁻¹
